Target: Histamine H3 receptor (Homo sapiens, UniProt Q9Y5N1)
Sequence (Q9Y5N1 whole entry): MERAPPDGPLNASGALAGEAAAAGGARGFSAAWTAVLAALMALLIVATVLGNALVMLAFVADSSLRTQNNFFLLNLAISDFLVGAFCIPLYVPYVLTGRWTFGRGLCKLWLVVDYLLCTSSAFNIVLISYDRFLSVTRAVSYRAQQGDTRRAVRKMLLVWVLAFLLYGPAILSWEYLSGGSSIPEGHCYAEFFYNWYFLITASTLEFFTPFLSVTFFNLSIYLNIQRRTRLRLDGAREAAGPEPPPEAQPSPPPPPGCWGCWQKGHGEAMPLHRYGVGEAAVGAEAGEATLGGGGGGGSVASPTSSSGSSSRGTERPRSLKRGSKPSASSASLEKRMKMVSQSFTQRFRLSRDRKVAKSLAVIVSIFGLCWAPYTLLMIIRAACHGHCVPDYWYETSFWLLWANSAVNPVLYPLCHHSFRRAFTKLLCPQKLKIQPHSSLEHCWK
Experiment: Displacement of [3H]N-alpha-methylhistamine from human histamine H3 receptor expressed in human SK-N-MC cells by liquid scintillation counting
Assay type: cell-based
Structures can show the parent of a compound that is named as a salt.
For each of the compounds below, state its Ki.
Answers are plain numbers, in nM.

Example entries begin here.
N=C(NCc1ccc(F)cc1)SCCCc1c[nH]cn1 : 5.01
N=C(NCc1ccc(Cl)c(Cl)c1)SCCCc1c[nH]cn1 : 6.31
Cc1ccc(CCNC(=N)SCCCc2c[nH]cn2)cc1 : 12.6
N=C(NCCC(c1ccccc1)c1ccccc1)SCCCc1c[nH]cn1 : 31.6
COc1ccc(CNC(=N)SCCCc2c[nH]cn2)cc1 : 7.94
N=C(NCc1ccc(Br)cc1)SCCCc1c[nH]cn1 : 2.51
Cc1ccc(CNC(=N)SCCCc2c[nH]cn2)cc1 : 6.31
N=C(NCc1ccc(I)cc1)SCCCc1c[nH]cn1 : 3.16
NC(=NCCCc1cnc[nH]1)NCc1ccccc1 : 79.4
NC(=NCCc1ccc(I)cc1)SCCCc1cnc[nH]1 [IODOPHENPROPIT HYDROBROMIDE] : 7.94

Answer for every listed entry: what is its Ki? The entries follow.
1. N=C(NCc1ccccc1)SCCCc1c[nH]cn1
2. N=C(NCCc1ccc(Cl)cc1)SCCCc1c[nH]cn1

Output:
1: 7.94; 2: 10
